# Test system: LPS-stimulated RAW264.7 cells
# TEST_SUMMARY: NO production (Griess assay) in LPS-stimulated RAW264.7 cells
# Type: cell-based, murine
# PARTICULARS: 10 μM, LPS 1 μg/mL
Doc: threshold 40% (exclusive). Items with Reduction of LPS-stimulated NO production beneath it return Yes; others return No.

[in] Does the reported Reduction of LPS-stimulated NO production of `C=C(C)[C@@H]1CC[C@]2(C(=O)O)CC[C@]3(C)[C@H](CC[C@@H]4[C@@]5(C)C/C(=C\c6cc(OC)ccc6[N+](=O)[O-])C(=O)C(C)(C)[C@@H]5CC[C@]43C)[C@@H]12` stay below 40%?
[out] No

[in] Criterion: Reduction of LPS-stimulated NO production strictly below 40%. Is it met by `C=C(C)[C@@H]1CC[C@]2(C(=O)O)CC[C@]3(C)[C@H](CC[C@@H]4[C@@]5(C)C/C(=C\c6cccc(C(F)(F)F)c6)C(=O)C(C)(C)[C@@H]5CC[C@]43C)[C@@H]12` ?
[out] Yes

[in] Identify whether the compound `C=C(C)[C@@H]1CC[C@]2(C(=O)O)CC[C@]3(C)[C@H](CC[C@@H]4[C@@]5(C)CC[C@H](O)C(C)(C)[C@@H]5CC[C@]43C)[C@@H]12` records Reduction of LPS-stimulated NO production below 40%.
[out] Yes

[in] For this compound, is Reduction of LPS-stimulated NO production lower than 40%? `C=C(C)[C@@H]1CC[C@]2(C(=O)O)CC[C@]3(C)[C@H](CC[C@@H]4[C@@]5(C)C/C(=C\c6ccc(OC)cc6)C(=O)C(C)(C)[C@@H]5CC[C@]43C)[C@@H]12`
[out] No

[in] Lab log: compare recorded Reduction of LPS-stimulated NO production with 40%; is it strictly lower for `C=C(C)[C@@H]1CC[C@]2(C(=O)O)CC[C@]3(C)[C@H](CC[C@@H]4[C@@]5(C)C/C(=C\c6cc(F)ccc6[N+](=O)[O-])C(=O)C(C)(C)[C@@H]5CC[C@]43C)[C@@H]12` ?
[out] Yes

[in] # TODO verify Reduction of LPS-stimulated NO production < 40% strictly for this compound: `C=C(C)[C@@H]1CC[C@]2(C(=O)O)CC[C@]3(C)[C@H](CC[C@@H]4[C@@]5(C)C/C(=C\c6ccccc6OC)C(=O)C(C)(C)[C@@H]5CC[C@]43C)[C@@H]12`
[out] Yes

---

# TEST_SUMMARY: Cell viability of BV-2 cells
# Format: cell-based, murine
# PARTICULARS: mouse, BV2 cells
QUANTITY_MEASURED: viability at 10 µM (%)
Respond numerically; units are % and should not be typed.

[in] Assign viability at 10 µM to the following record: `C=C(C)[C@@H]1CC[C@]2(C(=O)O)CC[C@]3(C)[C@H](CC[C@@H]4[C@@]5(C)CC[C@H](O)C(C)(C)[C@@H]5CC[C@]43C)[C@@H]12`
[out] 110

The measured values listed here are drawn from paper PMC9115581.
